Measured values drawn from paper PMC12680612 for this set.

# protocol_text: CellTiter-Glo cell viability assay (cytotoxicity), MOLT4
# Format: cell-based
# assay_setup: human; MOLT4, 72 h treatment; read-out: In vitro cytotoxicity EC50 ± SD MOLT4
Rule: measured EC50 at 72 h below 7 µM gets true (1); anything equal to or greater than 7 µM gets false (0).

{"molecule": "COC1=CC(c2ccc[nH]2)=N[C@@]12O[C@H](C)C[C@H]1CCCCCCCc3[nH]c(cc3C=O)[C@@H]12", "class_assignment": "true (1)"}
{"molecule": "COC1=CC(c2ccc[nH]2)=N[C@@]12O[C@H](C)C[C@H]1CCCCCCCc3[nH]c(cc3Br)[C@@H]12", "class_assignment": "true (1)"}
{"molecule": "COC1=CC(c2ccc[nH]2)=N[C@@]12O[C@H](C)C[C@H]1CCCCCCCc3[nH]c(cc3CO)[C@@H]12 [compound 10, 12-hydroxymethyl-premarineosin A]", "class_assignment": "false (0)"}
{"molecule": "COC1=CC(c2ccc[nH]2)=N[C@@]12O[C@H](C)C[C@H]1CCCCCCCc3ccc([nH]3)[C@@H]12 [compound 3, (−)-premarineosin A]", "class_assignment": "true (1)"}

Could you now look at the following molecule, please?
EC50 at 72 h under 7 µM? Item: COC1=CC(c2ccc(Br)[nH]2)=N[C@@]12O[C@H](C)C[C@H]1CCCCCCCc3ccc([nH]3)[C@@H]12
true (1)
